Values were extracted from PubChem BioAssay AID488969.

target: Metabotropic glutamate receptor 8 (Rattus norvegicus) (UniProt P70579); experiment: mGluR8 Gi/Go-coupled signaling modulation – cell-based, rat, thallium flux, HTS, primary screen (AID 488969); settings: HEK293 rat mGluR8, GIRK (G protein-gated inwardly rectifying potassium channel) thallium flux, FluoZin2; at 10 µM; stronger effect = higher value; submaximal glutamate (EC20) added with thallium
Sequence (P70579 whole entry, looked up): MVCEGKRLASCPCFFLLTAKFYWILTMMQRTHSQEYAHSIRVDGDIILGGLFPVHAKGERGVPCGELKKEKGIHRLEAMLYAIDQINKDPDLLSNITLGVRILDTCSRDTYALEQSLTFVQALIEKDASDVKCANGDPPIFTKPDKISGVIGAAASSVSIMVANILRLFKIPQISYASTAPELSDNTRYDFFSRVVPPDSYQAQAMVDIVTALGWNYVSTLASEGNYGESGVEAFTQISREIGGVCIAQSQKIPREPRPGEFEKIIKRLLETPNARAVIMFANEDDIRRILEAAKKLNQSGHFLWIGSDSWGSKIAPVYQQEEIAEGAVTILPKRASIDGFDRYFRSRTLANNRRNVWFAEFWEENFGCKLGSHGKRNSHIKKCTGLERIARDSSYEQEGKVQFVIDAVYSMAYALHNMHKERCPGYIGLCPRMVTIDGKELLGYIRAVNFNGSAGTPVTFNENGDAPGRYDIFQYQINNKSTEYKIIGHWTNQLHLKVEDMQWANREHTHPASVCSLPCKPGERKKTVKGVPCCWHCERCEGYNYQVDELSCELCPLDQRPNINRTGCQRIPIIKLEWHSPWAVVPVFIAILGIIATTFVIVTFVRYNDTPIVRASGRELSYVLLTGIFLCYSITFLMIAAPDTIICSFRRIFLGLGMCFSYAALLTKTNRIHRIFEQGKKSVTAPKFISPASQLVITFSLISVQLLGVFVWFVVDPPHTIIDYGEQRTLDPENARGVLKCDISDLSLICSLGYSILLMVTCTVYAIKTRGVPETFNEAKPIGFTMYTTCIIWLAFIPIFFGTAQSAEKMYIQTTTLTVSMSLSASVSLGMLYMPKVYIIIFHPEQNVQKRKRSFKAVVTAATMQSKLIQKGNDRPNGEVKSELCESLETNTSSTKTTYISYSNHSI
In all, about 110,000 compounds were measured (“z-score”: median about -0.1, highest 2% from about 2 on). The sample as a whole holds a higher share of the highest values than the screen did.
Property: z-score; scope: individual molecules
Answer as a number with no unit attached.

For orientation, consider the following solved cases.
{"molecule": "O=C(NC1CCCC1)C1CCN(c2nccs2)CC1", "assayed.system": "Metabotropic glutamate receptor 8 (Rattus norvegicus) (UniProt P70579)", "z-score": 0.382}
{"molecule": "O=C(NCC1COc2ccccc2O1)c1ccccc1 (stereo unspecified)", "assayed.system": "Metabotropic glutamate receptor 8 (Rattus norvegicus) (UniProt P70579)", "z-score": 0.298}
{"molecule": "O=C(NC(=S)Nc1ccc2c(c1)OCO2)c1ccc(Cl)cc1", "assayed.system": "Metabotropic glutamate receptor 8 (Rattus norvegicus) (UniProt P70579)", "z-score": 0.837}

Identify z-score associated with the molecule O=C(Nc1nc2ccccc2s1)C1CC(=O)N(c2ccc(Br)cc2)C1 (stereo unspecified)
0.374

Give the reported z-score for this molecule. `O=C(NC(=S)Nc1ccc2[nH]ncc2c1)c1ccccc1`
-0.139

Given the molecule `O=C(CC(=O)c1ccccc1)Nc1ccc2c(c1)OCCO2` , write its reported z-score.
-0.987
